Catalogue of compounds with associated log10(MIC)
Test system: Mycobacterium smegmatis ATCC 19420
protocolDescription: Broth microdilution MIC, M. smegmatis
Format: cell-based
setupConditions: Mycolicibacterium smegmatis, ATCC19420, M. smegmatis ATCC 19420; read-out: MIC Mycobacterium smegmatis ATCC 19420
Text: MICs in Mycobacterium smegmatis ATCC 19420 and Mycobacterium smegmatis ATCC 19420 derivatives were quantified using broth microdilution assays as described [Clinical and Laboratory Standards Institute (CLSI/NCCLS) (2009) Methods for Dilution Antimicrobial Susceptibility Tests for Bacteria That Grow Aerobically; Approved Standard, Eighth Edition. CLIS Document M07-A8 (CLIS, Wayne Pa.)].
In our notation, the value equals log10 of MIC in µg/mL.

Worked cases, answers included:
O=C(NC(Cc1ccc(O)cc1)C(=O)Nc1cccc2cc[nH]c12)c1ccccc1 (stereo not shown) [IX-40]: -0.41
O=C(NC(Cc1ccccc1)C(=O)Nc1cc(F)cc2ncccc12)c1ccccc1 (stereo not shown) [IX-75]: -0.41
CC1CN(c2ccc(F)cc2NC(=O)C(Cc2ccccc2)NC(=O)c2ccccc2F)CC(C)N1 (stereo not shown) [IX-308]: -0.41

Query: Given CCc1cccc(C(=O)NC(Cc2ccccc2)C(=O)Nc2ccccc2C)c1 (stereo not shown) [I-124] , state its recorded log10(MIC).
Result: 1.40

Query: Given O=C(NC(Cc1ccccc1)C(=O)Nc1cccc2cnccc12)c1ccccc1 (stereo not shown) [IX-3] , state its recorded log10(MIC).
Result: -0.71

Query: Given Cc1ccccc1NC(=O)C(Cc1cccc(O)c1)NC(=O)c1ccccc1 (stereo not shown) [I-12] , state its recorded log10(MIC).
Result: 0.49

Query: Given O=C(NC(Cc1ccccc1)C(=O)Nc1ccccc1N1CCOCC1)c1ccccc1 (stereo not shown) [I-181] , state its recorded log10(MIC).
Result: -1.14

Query: Given Cc1ccc(F)cc1NC(=O)C(Cc1ccccc1)NC(=O)c1ccccc1Cl (stereo not shown) [IX-82] , state its recorded log10(MIC).
Result: -0.41

Query: Given Cc1cccc(NC(=O)C(Cc2ccccc2)NC(=O)c2ccccc2)c1C (stereo not shown) [I-105] , state its recorded log10(MIC).
Result: -0.41
